system-name: 5-hydroxytryptamine receptor 2C (Homo sapiens, UniProt P28335)
assay-protocol: Agonist activity at 5HT2C receptor expressed in CHO cells by fluorescence based calcium mobilization assay
Format: functional, cell-based
experimental-parameters: cho
recorded-endpoint: EC50

1) Cc1cccc(C2CCNCC2)c1C.Cl = Not Active
2) COc1cccc(C2CCNCC2)c1.Cl = Not Active
3) Cl.Clc1ccccc1C1CCNCC1 = Not Active

====

Reported inhibition values are given for each entry in this list.
system-name: 5-hydroxytryptamine receptor 2C (Homo sapiens)
Sequence (whole entry): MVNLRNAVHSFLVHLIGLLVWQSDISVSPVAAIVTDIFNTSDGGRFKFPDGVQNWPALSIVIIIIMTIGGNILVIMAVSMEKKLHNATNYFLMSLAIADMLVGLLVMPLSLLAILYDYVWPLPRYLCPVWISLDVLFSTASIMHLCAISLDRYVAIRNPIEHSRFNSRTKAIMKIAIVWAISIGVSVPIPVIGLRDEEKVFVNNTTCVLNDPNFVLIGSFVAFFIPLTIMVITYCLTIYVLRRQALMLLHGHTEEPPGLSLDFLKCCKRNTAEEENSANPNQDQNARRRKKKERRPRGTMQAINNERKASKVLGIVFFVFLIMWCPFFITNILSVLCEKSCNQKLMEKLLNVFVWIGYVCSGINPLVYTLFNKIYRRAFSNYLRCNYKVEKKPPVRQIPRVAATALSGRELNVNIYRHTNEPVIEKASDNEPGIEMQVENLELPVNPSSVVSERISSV
assay-protocol: Displacement of [3H]-mesulergine from 5HT2C receptor expressed in CHO cell membranes at 1 uM after 90 mins by scintillation counting
recorded-endpoint: inhibition

1. Brc1ccc(C2=CCNCC2)cc1 = 22%
2. C1=C(c2c[nH]c3ccccc23)CCNC1 = 64%
3. Cc1ccc(C2CCNCC2)cc1.Cl = 9%
4. COc1ccc(C2CCNCC2)cc1.Cl = 3%
5. Clc1cccc(C2=CCNCC2)c1 = 65%
6. Cl.c1ccc(C2CCNCC2)cc1 = 6%
7. Clc1ccc(C2=CCNCC2)cc1 = 17%
8. FC(F)(F)c1cccc(C2=CCNCC2)c1 = 65%
9. c1ccc2c(C3CCNCC3)c[nH]c2c1 = 60%
10. Cc1cccc(C2CCNCC2)c1 = 15%
11. C1=C(c2ccccc2)CCNC1 = 9%
12. Cc1ccccc1C1CCNCC1.Cl = 10%
13. Clc1cccc(C2CCNCC2)c1 = 37%
14. COc1ccccc1C1CCNCC1.Cl = 23%
15. FC(F)(F)c1cccc(C2CCNCC2)c1 = 26%

====

pKi values for the compounds below.
system-name: 5-hydroxytryptamine receptor 2C (Homo sapiens, UniProt P28335)
assay-protocol: Displacement of [3H]-mesulergine from 5HT2C receptor expressed in CHO cell membranes after 90 mins by scintillation counting
pKi: −log10 of the molar value.
recorded-endpoint: pKi

1) COc1cccc(C2CCNCC2)c1.Cl = 5.21
2) Cl.FC(F)(F)c1ccc(C2CCNCC2)cc1 = 5.08
3) Cl.FC(F)(F)c1ccccc1C1CCNCC1 = 6.08
4) Clc1cccc(C2=CCNCC2)c1 = 6.55
5) Cc1cccc(C2CCNCC2)c1C.Cl = 5.94
6) FC(F)(F)c1cccc(C2CCNCC2)c1 = 5.81
7) Clc1ccc(C2=CCNCC2)cc1 = 5.51
8) C1=C(c2ccccc2)CCNC1 = 5.14
9) Brc1ccc(C2=CCNCC2)cc1 = 5.60
10) COc1ccccc1C1CCNCC1.Cl = 5.74
11) O=C(O)C(F)(F)F.c1cc2c(c(C3CCNCC3)c1)CCCC2 = 7.26
12) C1=C(c2c[nH]c3ccccc23)CCNC1 = 6.53
13) Cc1ccccc1C1CCNCC1.Cl = 5.50
14) c1ccc2c(C3CCNCC3)c[nH]c2c1 = 6.44
15) Clc1cccc(C2CCNCC2)c1 = 6.03
16) O=C(O)C(F)(F)F.c1ccc2c(C3CCNCC3)cccc2c1 = 7.22
17) FC(F)(F)c1cccc(C2=CCNCC2)c1 = 6.53
18) Cc1cccc(C2CCNCC2)c1 = 5.50

====

system-name: 5-hydroxytryptamine receptor 2C (Homo sapiens)
Sequence (whole entry): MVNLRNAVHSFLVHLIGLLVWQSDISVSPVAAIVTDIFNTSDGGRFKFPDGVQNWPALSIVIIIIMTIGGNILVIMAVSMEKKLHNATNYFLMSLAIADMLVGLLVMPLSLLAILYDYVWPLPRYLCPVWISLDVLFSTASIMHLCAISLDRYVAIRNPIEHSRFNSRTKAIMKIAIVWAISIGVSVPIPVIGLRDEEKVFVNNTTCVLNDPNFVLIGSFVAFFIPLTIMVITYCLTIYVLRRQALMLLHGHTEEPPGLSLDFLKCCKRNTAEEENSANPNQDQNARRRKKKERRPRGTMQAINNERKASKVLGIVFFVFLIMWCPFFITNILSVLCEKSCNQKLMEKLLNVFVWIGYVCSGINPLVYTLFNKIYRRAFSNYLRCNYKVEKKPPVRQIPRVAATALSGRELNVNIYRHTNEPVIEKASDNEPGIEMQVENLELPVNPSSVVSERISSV
assay-protocol: Displacement of [3H]-mesulergine from 5HT2C receptor expressed in CHO cell membranes at 10 uM after 90 mins by scintillation counting
recorded-endpoint: inhibition (%)

1) FC(F)(F)c1cccc(C2=CCNCC2)c1 = 93
2) C1=C(c2ccccc2)CCNC1 = 42
3) c1ccc2c(C3CCNCC3)c[nH]c2c1 = 92
4) Clc1cccc(C2CCNCC2)c1 = 83
5) COc1ccc(C2CCNCC2)cc1.Cl = 9
6) Cc1ccc(C2CCNCC2)cc1.Cl = 33
7) Clc1cccc(C2=CCNCC2)c1 = 95
8) Cc1cccc(C2CCNCC2)c1 = 63
9) Cc1ccccc1C1CCNCC1.Cl = 65
10) COc1ccccc1C1CCNCC1.Cl = 74
11) Clc1ccc(C2=CCNCC2)cc1 = 62
12) Brc1ccc(C2=CCNCC2)cc1 = 65
13) C1=C(c2c[nH]c3ccccc23)CCNC1 = 95
14) FC(F)(F)c1cccc(C2CCNCC2)c1 = 77
15) Cl.c1ccc(C2CCNCC2)cc1 = 16

====

system-name: 5-hydroxytryptamine receptor 2C (Homo sapiens, UniProt P28335)
assay-protocol: Displacement of [3H]-mesulergine from 5HT2C receptor expressed in CHO cell membranes using 11 concentration of ligand after 90 mins by scintillation counting using complete competition binding curves analysis
pKi: −log10 of the molar value.
Measured pKi of individual entries
recorded-endpoint: pKi

1) Clc1cccc(C2=CCNCC2)c1 = 6.50
2) O=C(O)C(F)(F)F.c1ccc2c(C3CCNCC3)cccc2c1 = 7.14
3) FC(F)(F)c1cccc(C2=CCNCC2)c1 = 6.44
4) Clc1cccc(C2CCNCC2)c1 = 5.84
5) C1=C(c2c[nH]c3ccccc23)CCNC1 = 6.20
6) c1ccc2c(C3CCNCC3)c[nH]c2c1 = 6.21
7) O=C(O)C(F)(F)F.c1cc2c(c(C3CCNCC3)c1)CCCC2 = 7.37

====

system-name: 5-hydroxytryptamine receptor 2C (Homo sapiens, UniProt P28335)
Sequence (P28335 whole entry): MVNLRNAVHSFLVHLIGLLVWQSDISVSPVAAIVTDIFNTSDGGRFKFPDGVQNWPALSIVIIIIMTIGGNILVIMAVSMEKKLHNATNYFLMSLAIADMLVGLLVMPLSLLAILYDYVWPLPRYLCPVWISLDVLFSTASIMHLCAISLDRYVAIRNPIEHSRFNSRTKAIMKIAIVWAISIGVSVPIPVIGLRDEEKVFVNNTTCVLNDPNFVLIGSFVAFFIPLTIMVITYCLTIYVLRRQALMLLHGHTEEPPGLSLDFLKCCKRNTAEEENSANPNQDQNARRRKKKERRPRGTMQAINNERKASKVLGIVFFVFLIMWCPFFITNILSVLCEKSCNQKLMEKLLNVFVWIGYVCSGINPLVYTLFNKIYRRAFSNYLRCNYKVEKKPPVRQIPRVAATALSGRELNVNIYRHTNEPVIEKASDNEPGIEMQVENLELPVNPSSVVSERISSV
assay-protocol: Agonist activity at 5HT2C receptor expressed in CHO cells by fluorescence based calcium mobilization assay
Type: functional, cell-based
experimental-parameters: read-out: EC50
pEC50: −log10 of the molar value.
Label T when pEC50 is at or above 6; anything below gets F.

1) c1ccc2c(C3CCNCC3)c[nH]c2c1 = T
2) Brc1ccc(C2=CCNCC2)cc1 = F
3) FC(F)(F)c1cccc(C2=CCNCC2)c1 = T
4) C1=C(c2c[nH]c3ccccc23)CCNC1 = T
5) Clc1cccc(C2=CCNCC2)c1 = T
6) Clc1ccc(C2=CCNCC2)cc1 = F
7) C1=C(c2ccccc2)CCNC1 = F
8) Cc1cccc(C2CCNCC2)c1 = F

Each recorded value in this set is attributed to ChEMBL document CHEMBL2010681.
